MEASUREMENT LABEL: melting point (°C)

Examples from the recorded data:
N#CC1=C(N)Oc2cc(O)c(N=Nc3ccc(C(=O)O)cc3)cc2C1c1ccccc1F (stereo not drawn) [13e]	243
CC(C)(C)c1ccc(C2C(C#N)=C(N)Oc3cc(O)c(N=Nc4ccc(S(=O)(=O)O)cc4)cc32)cc1 (stereo not drawn) [13g]	330
CC(C)(C)c1ccc(C2C(C#N)=C(N)Oc3c2ccc2c(N)cccc32)cc1 (stereo not drawn)	210
N#CC1=C(N)Oc2c(N)cc3ccccc3c2C1c1ccc(F)cc1F (stereo not drawn)	282
N#CC1=C(N)Oc2cc(O)c(N=Nc3ccc(S(=O)(=O)O)cc3)cc2C1c1ccccc1F (stereo not drawn) [13f]	290
COc1ccc(C2C(C#N)=C(N)Oc3c2ccc2c(N)cccc32)cc1 (stereo not drawn)	185
N#CC1=C(N)Oc2cc(O)c(N=Nc3ccc([N+](=O)[O-])cc3)cc2C1c1ccc(F)cc1 (stereo not drawn) [13c]	254

I = CC(=O)c1ccc(N=Nc2cc3c(cc2O)OC(N)=C(C#N)C3c2ccc(F)cc2)cc1 (stereo not drawn) [13d]
II = COc1ccc(C2C(C#N)=C(N)Oc3c(N)cc4ccccc4c32)cc1 (stereo not drawn)
Which has the higher melting point, I or II ? Identify your pick by its label.
I
(I: 265 °C, II: 183 °C)

The measurements presented in this section are drawn from paper PMC5547389.
